- assay.explanation: antivirals protecting cells from dengue CPE – CPE readout, HTS (AID 540333)
- condition.label: Dengue virus CPE inhibition in host cells, at 20 µM
The campaign covered roughly 10,000 compounds. About 320 (3.2%) were called active. Rule as the data show it: active = CPE inhibition mostly above about 9.1% (no sharp cut-off); inactive = mostly below about 7.2%. Shown is part of a subset that was picked to be rich in actives.
Your reply should match one of these outcome classes. active, inactive

> print(dat)
                                   molecule  assigned.label
1  Cc1ccc(-n2c(SCC(=O)Nc3ncc(Cl)cc3Cl)nc3ccccc32)cc1          active

Prompt: Field: outcome | Entry: Cc1ccc(S(=O)(=O)N(CC(=O)Nc2ccccc2-c2ccccc2)c2ccc(C)cc2C)cc1
Response: inactive

Prompt: Field: outcome | Entry: CC(/C=C/c1ccccc1F)=N\NC(=O)C(C)C
Response: inactive
